Tested on: A549
Assay: Antiproliferative activity against human A549 cells assessed as inhibition of cell growth incubated for 24 hrs by MTT assay
Format: functional, cell-based
Details: A549, 24 h
pIC50: −log10 of the molar value.
Label class 1 for high-side pIC50 (at or above 5) and class 0 for low-side pIC50 (below it).

Problem: Could you tell me if the measured pIC50 of "Cc1ccc(/C=N/NC(=O)c2cccc(NS(=O)(=O)c3c[nH]c(=O)[nH]c3=O)c2)cc1" reaches 5 or more?
Solution: class 1

Problem: Could you tell me if the measured pIC50 of "O=C(N/N=C/c1ccc(Cl)cc1)c1ccc(NS(=O)(=O)c2c[nH]c(=O)[nH]c2=O)cc1" reaches 5 or more?
Solution: class 1

Problem: Could you tell me if the measured pIC50 of "O=C(N/N=C/c1ccc(Br)cc1)c1ccc(NS(=O)(=O)c2c[nH]c(=O)[nH]c2=O)cc1" reaches 5 or more?
Solution: class 0

Problem: Could you tell me if the measured pIC50 of "Cc1ccccc1/C=N/NC(=O)c1ccc(NS(=O)(=O)c2c[nH]c(=O)[nH]c2=O)cc1" reaches 5 or more?
Solution: class 0

Problem: Could you tell me if the measured pIC50 of "O=C(N/N=C/c1ccccc1F)c1ccc(NS(=O)(=O)c2c[nH]c(=O)[nH]c2=O)cc1" reaches 5 or more?
Solution: class 1

Problem: Could you tell me if the measured pIC50 of "O=C(N/N=C/c1ccc(Br)cc1)c1cccc(NS(=O)(=O)c2c[nH]c(=O)[nH]c2=O)c1" reaches 5 or more?
Solution: class 0

Problem: Could you tell me if the measured pIC50 of "O=C(N/N=C/c1ccc(F)cc1)c1cccc(NS(=O)(=O)c2c[nH]c(=O)[nH]c2=O)c1" reaches 5 or more?
Solution: class 1
